# TARGET UNDER TEST: Virion infectivity factor (Human immunodeficiency virus type 1 group M subtype B (isolate BH10)) + Virion infectivity factor (Human immunodeficiency virus type 1 group M subtype B (isolate BRU/LAI)) + Virion infectivity factor (Human immunodeficiency virus type 1 group M subtype B (isolate PCV12)) + Virion infectivity factor (Human immunodeficiency virus type 1 group M subtype B (isolate HXB2)) + DNA dC->dU-editing enzyme APOBEC-3G (Homo sapiens) (UniProt P69720+P69721+P69722+P69723+Q9HC16)
# TEST DESCRIPTION: inhibitors of Vif binding to APOBEC3G peptide, primary screen, biochemical, TR-FRET, GST-Vif 1-94, biotin-A3G peptide, dose response retest (AID 1117319);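 further: Vif residues 1-94 fused to GST binding biotinylated APOBEC3G peptide 110-148; 0% = full assay without inhibitor and 100% = GST in place of GST-Vif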
# ASSAY CONTEXT: hits give high values
Out of some 260,000 compounds screened, about 1,500 (0.58%) were called active. About 5% were inconclusive and are not listed. Not all results are given here. Measured potencies and affinities stand elsewhere.
REPORTED PROPERTY: inhibition (%)
Output spec: scalar in %, unitless text.

Some solved entries appear below for comparison.
Cc1nc2ccc(NC(=O)N3CCCCC3)cc2nc1C: 1.22
Cc1cc(C)c2c(=O)[nH]c(=O)n(Cc3ccccc3)c2n1: 11.8

Switching to the query record.
Endpoint output: inhibition of `Cc1cc(C(=O)N2CCN(S(=O)(=O)c3ccc(C)c(C)c3)CC2)no1` . Value?
3.5

====

# TARGET UNDER TEST: Virion infectivity factor (Human immunodeficiency virus type 1 group M subtype B (isolate BH10)) + Virion infectivity factor (Human immunodeficiency virus type 1 group M subtype B (isolate BRU/LAI)) + Virion infectivity factor (Human immunodeficiency virus type 1 group M subtype B (isolate PCV12)) + Virion infectivity factor (Human immunodeficiency virus type 1 group M subtype B (isolate HXB2)) + DNA dC->dU-editing enzyme APOBEC-3G (Homo sapiens) (UniProt P69720+P69721+P69722+P69723+Q9HC16)
# TEST DESCRIPTION: inhibitors of Vif binding to APOBEC3G peptide, primary screen, biochemical, TR-FRET, GST-Vif 1-94, biotin-A3G peptide, dose response retest (AID 1117319);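 further: Vif residues 1-94 fused to GST binding biotinylated APOBEC3G peptide 110-148; 0% = full assay without inhibitor and 100% = GST in place of GST-Vif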
# ASSAY CONTEXT: hits give high values
Screen size: about 260,000 compounds; about 1,500 (0.58%) were called active. Roughly 5% stayed inconclusive and do not appear here. A selection follows. Results with a measured potency or affinity are listed apart.
Entries and their inhibition
Express the result in % but write the number alone.

CSc1ccc(/C=N/n2c(C)cc(C)cc2=O)cc1: -2.42
COn1c(-c2ccccc2)nc2c1CCc1c-2no[n+]1[O-]: 3.61
c1ccc(Nc2ccccc2)cc1: -0.33
O=C(O)CCN1/C(=C/C=Nc2ccccc2)Oc2ccccc21: 20.6
Cc1ccc(-c2cn3c(n2)SCC3)cc1: -0.83

Recorded inhibition for `Cc1csc2cc(-c3cccc([N+](=O)[O-])c3)c(-c3cccc([N+](=O)[O-])c3)c[n+]12` , please?
1.42

Which inhibition value is on record for CCOC(=O)C1=C(C)N(C)C(=S)NC1c1cc(OC)ccc1OC (stereo not drawn) ?
29.4

What does the record list as inhibition for `COC(=O)Cn1ncn2cccc2c1=O` ?
31

Could you share which inhibition value was measured for Cc1ccc(NCc2nnc(SCC(=O)Nc3ncc(C)s3)n2CC2CCCO2)c(C)c1 (stereo not drawn) ?
-1.98

I am curious: what inhibition value has been reported for `CCN(CC)C(=O)[C@H]1C[C@H](CC(=O)NCCc2ccccn2)C(=O)N2CCc3c([nH]c4cc(CCC(=O)N(C)C)ccc34)[C@]12C` ?
17.5

# lookup: inhibition of `COc1cc(/C=C2/SC(=NCc3ccccc3)N(Cc3ccccc3)C2=O)ccc1O`
-3.52

Would you kindly share the measured inhibition for `COc1ccc(Cn2cnc3c(NS(C)(=O)=O)c(C)c(C)cc32)cc1` ?
-0.98

Query (molecule): `O=C(CSc1ccc2c(c1)OCCO2)N1CCN(c2ccccc2O)CC1` ; field requested: inhibition
14.3

Please report the recorded inhibition for `Oc1ccc(-c2cn3c(n2)SCC3)cc1` .
1.62

Return reported inhibition; argument: `COC(=O)c1cc(Br)c(=O)n(CC(C)C)c1`
4.6

Find the recorded inhibition belonging to `Cc1ccc(NC(=O)CN2C(=O)N/C(=C/c3ccc(C)o3)C2=O)cc1` and report it.
30.9

Can you share its inhibition? I mean this molecule: `CCN(CC)c1ccc(/C=N/N2C(=O)c3ccccc3C2=O)cc1`
0.19

Item under review: CCOC(=O)c1ccc(N2C(=O)C3CC=C(C)CC3C2=O)cc1 (stereo not drawn) . Reported inhibition?
24.6

I am curious: what inhibition value has been reported for `CCOC(=O)C1CCN(c2c(NCc3ccc(C(=O)NC4CCCC4)cc3)c(=O)c2=O)CC1` ?
0.11

Quick check: inhibition of Cc1cc(C)c(C(=O)NC2CC(C)(C)Cc3c2cnn3-c2ccccc2)o1 (stereo not drawn) ?
1.78

====

# TARGET UNDER TEST: Virion infectivity factor (Human immunodeficiency virus type 1 group M subtype B (isolate BH10)) + Virion infectivity factor (Human immunodeficiency virus type 1 group M subtype B (isolate BRU/LAI)) + Virion infectivity factor (Human immunodeficiency virus type 1 group M subtype B (isolate PCV12)) + Virion infectivity factor (Human immunodeficiency virus type 1 group M subtype B (isolate HXB2)) + DNA dC->dU-editing enzyme APOBEC-3G (Homo sapiens) (UniProt P69720+P69721+P69722+P69723+Q9HC16)
# TEST DESCRIPTION: inhibitors of Vif binding to APOBEC3G peptide, primary screen, biochemical, TR-FRET, GST-Vif 1-94, biotin-A3G peptide, dose response retest (AID 1117319);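 further: Vif residues 1-94 fused to GST binding biotinylated APOBEC3G peptide 110-148; 0% = full assay without inhibitor and 100% = GST in place of GST-Vif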
# ASSAY CONTEXT: hits give high values
The whole screen tested about 260,000 compounds, of which about 1,500 (0.58%) were called active. Roughly 5% stayed inconclusive and do not appear here. Not all results are given here. Measured potencies and affinities stand elsewhere.
Quick list: inhibition per entry.
// note: answer is a bare numeric in %

Some solved entries appear below for comparison.
CCC1C/C(=C\c2cccnc2)C(=O)/C(=C/c2cccnc2)C1 (centres undefined): 9.28
CC(=O)Nc1ccc(/C=N/Nc2nncc3ccccc23)cc1: -1.2
O=C(/C=C/c1ccccc1[N+](=O)[O-])OCC(=O)c1ccccc1: -4.21
COc1cc(NC(=O)CSc2ccc(-c3ccco3)nn2)cc(OC)c1: 0.78
CC(=O)c1cn(N(C)c2ncc(C(F)(F)F)cc2Cl)c(=O)[nH]c1=O: -1.96
COc1cccc(-n2nnc3c(=O)n(Cc4ccc(Br)cc4)cnc32)c1: -0.95
COc1cc(/C=C2\CC(C(C)(C)C)C/C(=C\c3cc(OC)c(OC)c(OC)c3)C2=O)cc(OC)c1OC (centres undefined): 2.75
O=C(O)CCCCCCCCCCC1CCC(O)C1O (centres undefined): -4.99

Requested read-out: inhibition. Entry: `CCN(CC)CCn1c2c(c(SCC(=O)NCc3ccccc3)nc1=O)CCCC2`
6.08

So what's the measured inhibition for this one? `CN(C)C(=O)CCc1ccc2c3c([nH]c2c1)[C@]1(CCC2CCCC2)[C@@H](C(=O)N2CCOCC2)C[C@H](CC(=O)NCCC2=CCCCC2)C(=O)N1CC3`
4.07

Fill in the blank: the reported inhibition of CCOc1ccc2nc(NC(=O)C3CCCN(S(=O)(=O)c4c(C)noc4C)C3)sc2c1 (centres undefined) is ____.
-3.03

Which inhibition is reported for this molecule? `Cc1ccc2cccc(O)c2[n+]1[O-]`
18.8

Could you tell me which inhibition is on file for CCN1CCCC1Cn1cnc2c([nH]c3cccc(Cl)c32)c1=O (centres undefined) ?
32.2

# inhibition lookup, item `O=C(O)CN1C(=O)CNC1=O`
-0.07

====

# TARGET UNDER TEST: Virion infectivity factor (Human immunodeficiency virus type 1 group M subtype B (isolate BH10)) + Virion infectivity factor (Human immunodeficiency virus type 1 group M subtype B (isolate BRU/LAI)) + Virion infectivity factor (Human immunodeficiency virus type 1 group M subtype B (isolate PCV12)) + Virion infectivity factor (Human immunodeficiency virus type 1 group M subtype B (isolate HXB2)) + DNA dC->dU-editing enzyme APOBEC-3G (Homo sapiens) (UniProt P69720+P69721+P69722+P69723+Q9HC16)
# TEST DESCRIPTION: inhibitors of Vif binding to APOBEC3G peptide, primary screen, biochemical, TR-FRET, GST-Vif 1-94, biotin-A3G peptide, dose response retest (AID 1117319);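 further: Vif residues 1-94 fused to GST binding biotinylated APOBEC3G peptide 110-148; 0% = full assay without inhibitor and 100% = GST in place of GST-Vif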
# ASSAY CONTEXT: hits give high values
Among all 260,000 compounds or so, about 1,500 (0.58%) were called active. Not shown: some 5% with an inconclusive outcome. The list is a sample of the results. Results with a measured potency or affinity are listed apart.
Below, each entry is listed alongside its reported inhibition.
Enter your answer as a number in %; do not include the unit.

CC1CN(C(c2cccs2)c2sc3ncnn3c2O)CC(C)O1 (stereo not drawn): -3.12
Cc1c(/C=N/O)c2ccccn2c1C(=O)c1ccc(F)cc1: -0.95

Turning now to a further compound:
For the compound shown here, `COc1ccc(N=C2S/C(=C\c3ccc(C)s3)C(=O)N2CC(C)C)cc1` , give the reported inhibition.
-0.05
